Molecular target: ACSS2 (Homo sapiens, UniProt Q9NR19)
Construct: endogenous fatty acid synthesis activity in the human HCT-15 cancer cell line; endogenous in cells; host or cells: HCT-15
Experiment: Cellular assay of 14C acetate incorporation into fatty acids (IC50 ACSS2 cellular lipids)
Format: cell-based
Settings: HCT-15 cells
From the text: This protocol describes a cellular assay capable to quantify endogenous fatty acid synthesis activity in the human HCT-15 cancer cell line following the incorporation of extracellularly administered radiolabeled ^14C acetate with a scintillation proximity based read out on extracted fatty acids. […]
pIC50: −log10 of the molar value.
Some compounds, each annotated with its measured pIC50.

Solved entries (count: 5):
- COMPOUND: "CCc1c(C(O)(c2ccccc2F)c2ccccc2F)nn2cc(C)c(C(=O)Nc3ncn(CC)n3)cc12"
  SYSTEM_TESTED: "ACSS2 (Homo sapiens, UniProt Q9NR19)"
  pIC50: "7.00 to 8.00"
- COMPOUND: "CCn1cnc(NC(=O)c2cc3c(nc2OC)nc(C(O)(c2ccccc2F)c2ccc(OC(F)F)cc2F)n3CC)n1 (racemic)"
  SYSTEM_TESTED: "ACSS2 (Homo sapiens, UniProt Q9NR19)"
  pIC50: "8.00 to 9.00"
- COMPOUND: "CCc1c(C(O)(c2ccccc2)c2ccccc2)nc2ccc(C(=O)Nc3cnn(CC)c3)cn12"
  SYSTEM_TESTED: "ACSS2 (Homo sapiens, UniProt Q9NR19)"
  pIC50: "5.00 to 7.00"
- COMPOUND: "CCn1cnc(NC(=O)c2cc3c(nc2OC)nc(C(O)(c2cccs2)c2cccs2)n3CC)n1"
  SYSTEM_TESTED: "ACSS2 (Homo sapiens, UniProt Q9NR19)"
  pIC50: "9.00 to 11.00"
- COMPOUND: "CCc1c(C(O)(c2ccccc2)c2ccccc2)nc2cc(F)c(C(=O)Nc3ncn(CC)n3)cn12"
  SYSTEM_TESTED: "ACSS2 (Homo sapiens, UniProt Q9NR19)"
  pIC50: "8.00 to 9.00"

Would you please give the reported pIC50 of CCn1cc(NC(=O)c2cc3c(nc2Cl)nc(C(O)(c2ccccc2)c2ccccc2)n3CC)cn1 with ACSS2 (Homo sapiens, UniProt Q9NR19)? 7.00 to 8.00

Would you please give the reported pIC50 of CCn1cc(NC(=O)c2cc3c(nc2F)nc(C(O)(c2ccccc2)c2ccccc2)n3CC)cn1 with ACSS2 (Homo sapiens, UniProt Q9NR19)? 8.00 to 9.00

----------
Some molecules, each annotated with its measured IC50.
biological target: ACSS2 (Homo sapiens, UniProt Q9NR19); construct: endogenous fatty acid synthesis activity in the human HCT-15 cancer cell line; endogenous in cells; host or cells: HCT-15; assay: Cellular assay of 14C acetate incorporation into histones (IC50 ACSS2 cellular histone); assay type: cell-based; settings: HCT-15 cells

- MOLECULE: "CCn1cnc(NC(=O)c2cc3c(nc2Cl)nc(C(O)(c2ccccc2)c2ccccc2)n3CC)n1 [Compound 99]"
  OBSERVED_PROPERTY: "IC50"
  RESULT: "0.01 to 1 nM"
- MOLECULE: "CCc1c(C(O)(c2ccccc2)c2ccccc2)nc2cc(Cl)c(C(=O)Nc3cnn(CC)c3)cn12 [Compound 19]"
  OBSERVED_PROPERTY: "IC50"
  RESULT: "10 to 100 nM"

Would you please give the reported IC50 of CCn1cnc(NC(=O)c2cc3c(nc2OC)nc(C(O)(c2ccccc2)c2ccc(OC(F)F)cc2)n3CC)n1 (racemic) [Compound 86] with ACSS2 (Homo sapiens, UniProt Q9NR19)? 1 to 10 nM

Would you please give the reported IC50 of CCc1c(C(O)(c2ccccc2)c2ccccn2)nc2cc(OC)c(C(=O)Nc3ncn(CC)n3)cn12 (single isomer, unassigned) [Compound 17] with ACSS2 (Homo sapiens, UniProt Q9NR19)? 10 to 100 nM

----------
Some compounds, each annotated with its measured IC50.
target: ACSS2 (Homo sapiens, UniProt Q9NR19); construct: endogenous fatty acid synthesis activity in the human HCT-15 cancer cell line; endogenous in cells; host or cells: HCT-15; test: Cellular assay of 14C acetate incorporation into histones (IC50 ACSS2 cellular histone); assay type: cell-based; conditions: HCT-15 cells

Solved entries (count: 8):
- COMPOUND: "CCn1cnc(NC(=O)c2cc3c(nc2OC)nc(C(O)(c2ccccc2)c2ccccc2)n3CC)c1"
  RESULT: "1 to 10 nM"
- COMPOUND: "CCn1cnc(NC(=O)c2cc3c(nc2OC)nc(C(O)(c2ccccc2)c2ccccn2)n3CC)n1 (single isomer, unassigned) [Compound 54]"
  RESULT: "10 to 100 nM"
- COMPOUND: "CCc1c(C(O)(c2ccccc2)c2ccccc2)nc2ccc(C(=O)Nc3cnn(CC)c3)cn12"
  RESULT: "10 to 100 nM"
- COMPOUND: "CCn1cnc(NC(=O)c2cc3c(nc2F)nc(C(O)(c2ccccc2)c2ccccc2)n3CC)n1"
  RESULT: "1 to 10 nM"
- COMPOUND: "CCn1cnc(NC(=O)c2cc3c(nc2C)nc(C(O)(c2ccccc2)c2ccccc2)n3CC)n1"
  RESULT: "1 to 10 nM"
- COMPOUND: "CCn1cc(NC(=O)c2cc3c(nc2Cl)nc(C(O)(c2ccccc2)c2ccc(OC(F)F)cc2F)n3CC)cn1 (racemic) [Compound 81]"
  RESULT: "10 to 100 nM"
- COMPOUND: "CCc1c(C(O)(c2ccccc2F)c2ccccc2F)nn2cc(OC)c(C(=O)Nc3ncn(CC)n3)cc12"
  RESULT: "1 to 10 nM"
- COMPOUND: "CCc1c(C(O)(c2ccccc2F)c2ccccc2F)nc2cc(Cl)c(C(=O)Nc3cnn(CC)c3)cn12"
  RESULT: "10 to 100 nM"

Query compound follows.
Please give measured IC50 of the following entry: CCn1c(C(O)(c2ccccc2)c2ccccc2)nc2nc(OC)c(C(=O)Nc3ncn(CCO)n3)cc21 10 to 100 nM

----------
target: ACSS2 (Homo sapiens, UniProt Q9NR19); construct: endogenous fatty acid synthesis activity in the human HCT-15 cancer cell line; endogenous in cells; host or cells: HCT-15; experiment: Cellular assay of 14C acetate incorporation into fatty acids (IC50 ACSS2 cellular lipids); assay type: cell-based; details: HCT-15 cells
pIC50: −log10 of the molar value.
OBSERVED_PROPERTY: pIC50

Solved entries (count: 5):
- MOLECULE: "CCc1c(C(O)(c2ccccc2F)c2ccccc2F)nc2cc(OC)c(C(=O)Nc3ncn(CC)n3)cn12"
  pIC50: "8.00 to 9.00"
- MOLECULE: "CCc1c(C(O)(c2ccccc2F)c2ccccc2F)nc2cc(Cl)c(C(=O)Nc3ncn(CC)n3)cn12"
  pIC50: "8.00 to 9.00"
- MOLECULE: "CCn1c(C(O)(c2ccccc2)c2ccccc2)nc2nc(Cl)c(C(=O)Nc3cnn(CCO)c3)cc21"
  pIC50: "8.00 to 9.00"
- MOLECULE: "CCn1cnc(NC(=O)c2cc3c(nc2OC)nc(C(O)(c2ccccc2F)c2ccccc2F)n3CC)n1"
  pIC50: "8.00 to 9.00"
- MOLECULE: "CCn1cnc(NC(=O)c2cc3c(nc2OC)nc(C(O)(c2ccccc2)c2ccccn2)n3CC)n1 (single isomer, unassigned) [Compound 53]"
  pIC50: "9.00 to 11.00"

Please give measured pIC50 of the following entry: CCn1cc(NC(=O)c2cc3c(nc2F)nc(C(O)(c2ccccc2F)c2ccccc2F)n3CC)cn1 8.00 to 9.00

----------
target: human rec ACSS2 (Homo sapiens); construct: myc (C); test: Biochemical activity ACSS2 assay (AMP-Glo); details: human recombinant ACSS2, AMP-Glo, 180 min at 37° C.
Sequence (Q9NR19 whole entry): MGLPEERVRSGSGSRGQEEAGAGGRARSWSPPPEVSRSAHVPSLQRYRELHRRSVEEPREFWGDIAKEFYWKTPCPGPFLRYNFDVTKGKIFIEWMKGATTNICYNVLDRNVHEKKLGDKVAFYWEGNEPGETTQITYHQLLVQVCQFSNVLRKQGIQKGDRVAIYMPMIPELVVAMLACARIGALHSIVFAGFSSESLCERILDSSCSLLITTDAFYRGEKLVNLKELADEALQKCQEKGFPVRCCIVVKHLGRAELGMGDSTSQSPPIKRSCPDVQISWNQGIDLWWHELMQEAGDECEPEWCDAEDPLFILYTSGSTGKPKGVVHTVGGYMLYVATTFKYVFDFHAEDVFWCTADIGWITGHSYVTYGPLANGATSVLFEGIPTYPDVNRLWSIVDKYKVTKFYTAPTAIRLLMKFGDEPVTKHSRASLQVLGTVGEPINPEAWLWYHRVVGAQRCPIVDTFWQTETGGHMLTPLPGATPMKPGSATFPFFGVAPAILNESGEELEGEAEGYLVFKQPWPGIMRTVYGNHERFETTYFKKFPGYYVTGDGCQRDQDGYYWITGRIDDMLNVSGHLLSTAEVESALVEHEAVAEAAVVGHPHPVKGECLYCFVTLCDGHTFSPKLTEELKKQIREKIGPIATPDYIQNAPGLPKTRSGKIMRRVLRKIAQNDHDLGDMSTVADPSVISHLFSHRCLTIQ
OBSERVED_PROPERTY: IC50

- COMPOUND: "CCn1cnc(NC(=O)c2cc3c(nc2OC)nc(C(O)(c2ccccc2)c2ccccc2OC)n3CC)n1 (racemic) [Compound 57]"
  IC50: "100 to 10000 nM"
- COMPOUND: "CCc1c(C(O)(c2ccccc2)c2ccn(C)n2)nc2cc(OC)c(C(=O)Nc3ncn(CC)n3)cn12 (single isomer, unassigned) [Compound 21]"
  IC50: "100 to 10000 nM"
- COMPOUND: "CCn1cc(NC(=O)c2cc3c(nc2C)nc(C(O)(c2ccccc2)c2ccccc2)n3CC)cn1 [Compound 109]"
  IC50: "1 to 10 nM"
- COMPOUND: "CCc1c(C(O)(c2ccccc2)c2ccccc2)nc2cc(F)c(C(=O)Nc3cnn(CC)c3)cn12 [Compound 15]"
  IC50: "10 to 100 nM"

Please give measured IC50 of the following entry: CCc1cnc(NC(=O)c2cc3c(nc2OC)nc(C(O)(c2ccccc2)c2ccccc2)n3CC)o1 [Compound 60] 0.01 to 1 nM

Please give measured IC50 of the following entry: CCn1cnc(NC(=O)c2cc3c(nc2OC)nc(C(O)(c2ccccc2)c2ccc(C)s2)n3CC)n1 (racemic) [Compound 51] 1 to 10 nM

Please give measured IC50 of the following entry: CCn1cc(NC(=O)c2cc3c(nc2Cl)nc(C(O)(c2ccc(OC(F)F)cc2)c2ccccc2F)n3CC)cn1 (racemic) [Compound 85] 10 to 100 nM
